src = patent US9458110B2

I'd appreciate it if you could supply IC50 values for the items below.
Lab book: enter the figure in nM, no units written.

// compound Cc1cc(C(=O)N[C@H](CN)c2ccccc2)ccc1-c1cn[nH]c1 [Example 256] , assay ROCK2 (Homo sapiens (Human)), IC50 value: 0.72

Short answer on ROCK2 (Homo sapiens (Human)) for COc1cc(C(=O)NCc2ccc3c(c2)OCO3)ccc1-c1cn[nH]c1 [Example 38] , IC50: 14.2

Tested on ROCK2 (Homo sapiens (Human)): COc1cc(C(=O)NCc2ccccn2)ccc1-c1cn[nH]c1 [Example 15] . Observed IC50: 60.4

# IC50 measured on ROCK2 (Homo sapiens (Human)) for item CCC(O)c1cc(C(=O)N[C@H](C)c2ccccc2)ccc1-c1cn[nH]c1 (stereo partly drawn) [Example 285] = 1480

Noted IC50 for COc1cc(C(=O)NC[C@H](O)c2ccccc2)ccc1-c1cn[nH]c1 [Example 130] , tested on ROCK2 (Homo sapiens (Human)): 33.4

COc1cc(-c2cn[nH]c2)ccc1C(=O)NC(CN)Cc1ccccc1 (stereo not drawn) [Example 233] on ROCK2 (Homo sapiens (Human)) gives IC50 = 2.53

Hey, ROCK2 (Homo sapiens (Human)) data for COc1cc(C(=O)NC(C)c2cccc3ccccc23)ccc1-c1cn[nH]c1 (stereo in doubt) [Example 172] : IC50 came out at 2.32

Result for COc1cc(C(=O)NCc2cccc(O)c2)ccc1-c1cn[nH]c1 [Example 6] , tested on ROCK2 (Homo sapiens (Human)), IC50: 0.85

Assay ROCK2 (Homo sapiens (Human)), sample CC(O)c1cc(C(=O)N[C@H](C)c2ccccc2)ccc1-c1cn[nH]c1 (stereo partly drawn) [Example 280] , IC50 read: 443

Result for COc1cc(C(=O)NCc2ccc3sccc3c2)ccc1-c1cn[nH]c1 [Example 104] , tested on ROCK2 (Homo sapiens (Human)), IC50: 9.44

GET /values?item= COc1cc(C(=O)NCc2cccc(C(=O)Nc3nc4c(s3)CN(C)CC4)c2)ccc1-c1cn[nH]c1 [Example 247] &system= ROCK2 (Homo sapiens (Human)) returns IC50: 0.33

Record COc1ccccc1CCNC(=O)c1ccc(-c2cn[nH]c2)c(OC)c1 [Example 126] ; system ROCK2 (Homo sapiens (Human)); IC50 = 1350

Item CC(O)c1cc(C(=O)N[C@H](C)c2ccccc2F)ccc1-c1cn[nH]c1 (stereo partly drawn) [Example 283] was tested on ROCK2 (Homo sapiens (Human)); the reported IC50 is 5.43

Tested on ROCK2 (Homo sapiens (Human)), the item CCc1ccccc1CNC(=O)c1ccc(-c2cn[nH]c2)c(OC)c1 [Example 180] showed IC50 equal to 15.3

With ROCK2 (Homo sapiens (Human)) as the test system, COC(=O)c1cc(CNC(=O)c2ccc(-c3cn[nH]c3)c(OC)c2)ccc1F [Example 134] showed IC50 of 0.82

Let me check: CCNC(=O)c1cccc(CNC(=O)c2ccc(-c3cn[nH]c3)c(C)c2)c1 [Example 240] , system ROCK2 (Homo sapiens (Human)), measured IC50 is 2.61

Entry COc1cc(C(=O)NCc2ccc(F)c(C(=O)O)c2)ccc1-c1cn[nH]c1 [Example 242] , ROCK2 (Homo sapiens (Human)) data, IC50 value: 4.41

Summary: COc1cc(C(=O)NCc2cccc(C(=O)NC3CC3)c2)ccc1-c1cn[nH]c1 [Example 238] , ROCK2 (Homo sapiens (Human)), IC50 = 0.32
